Origin of the recorded values: patent US20040116420A1

Catalogue of molecules with associated EC90
Tested on: HSV-1
Experiment: Antiviral activity, HSV-1 in Vero cells, plaque method
Assay type: cell-based
Conditions: Human alphaherpesvirus 1, 20 hours, 90% inhibition of plaque formation
Method: An Assay Method for Antiviral Activity These complementary assay methods examine the capacity of a compound to inhibit the generation of new viruses and to inhibit the toxicity of the compound against the host cell. Toxicity indirectly decreases the generation of viruses. Thus, it is important to simultaneously conduct both assays in order to directly compare the results. […] In this case, a substance to which 2% FBS-DMEM not comprising any test compound had been added was determined as a control. […]

Cc1c(NC(=O)OC(C)(C)C)ccc2nc(N[C@@H](Cc3ccccc3)C(=O)NCc3ccncc3)oc(=O)c12 [Compound No.31]
> 25 µM

I would be grateful if you could share the reported EC90 for Cc1c(NC(=O)CCCNC(=O)c2cccs2)ccc2nc(NC(C)(C)C(=O)N(C)CCc3ccccn3)oc(=O)c12 [Compound No.212] . > 12.5 µM

And then Cc1c(NC(=O)c2cccc(Br)c2)ccc2nc(NC(C)(C)C(=O)N(C)CCc3ccccn3)oc(=O)c12 [Compound No.200] , what is it? 3.2 µM

Again, but for Cc1c(NC(=O)OC(C)(C)C)ccc2nc(N3CCC[C@H]3C(=O)NCc3ccccn3)oc(=O)c12 [Compound No.86] > 12.5 µM
